Origin of measurements: the supplement of paper PMC9112550

tested on: Escherichia coli TOP10; assay: shrunken log2 fold change of peptide-encoding DNA abundance (4.5 h post-induction vs induction); higher = less antimicrobial activity (less host growth inhibition); details: time post-induction: 4.5 h; library: site-saturation at positions 5, 18, 19, 20
Readings of shrunken log2 fold change for the listed sequences

{"columns": ["sequence.record", "shrunken log2 fold change"],
 "data": [
  ["RRIRRRPPRLPRPRPRPKARPRP", 0.277],
  ["RRIRWRPPRLPRPRPRPNSLPRP", -0.123],
  ["RRIRPRPPRLPRPRPRPQFAPRP", 0.218],
  ["RRIRSRPPRLPRPRPRPLDFPRP", -0.223],
  ["RRIRSRPPRLPRPRPRPCTNPRP", -0.256],
  ["RRIRERPPRLPRPRPRPSATPRP", 0.0731],
  ["RRIRIRPPRLPRPRPRPTEWPRP", 0.133],
  ["RRIRDRPPRLPRPRPRPNHCPRP", 0.0177],
  ["RRIRERPPRLPRPRPRPRCMPRP", -0.355],
  ["RRIRLRPPRLPRPRPRPYQHPRP", -0.661],
  ["RRIRQRPPRLPRPRPRPEVQPRP", -0.0138],
  ["RRIRYRPPRLPRPRPRPPGDPRP", 0.152],
  ["RRIRDRPPRLPRPRPRPEFDPRP", 0.375],
  ["RRIRMRPPRLPRPRPRPNVIPRP", -0.117],
  ["RRIRGRPPRLPRPRPRPVHQPRP", 0.228],
  ["RRIRFRPPRLPRPRPRPLPVPRP", 0.142],
  ["RRIRPRPPRLPRPRPRPCSSPRP", -0.467],
  ["RRIRIRPPRLPRPRPRPGRIPRP", 0.0431],
  ["RRIRYRPPRLPRPRPRPHMPPRP", -0.38],
  ["RRIRERPPRLPRPRPRPCLGPRP", -0.0295],
  ["RRIRPRPPRLPRPRPRPWRVPRP", 0.244],
  ["RRIRLRPPRLPRPRPRPFKMPRP", -0.388]
]}

###

tested on: Escherichia coli TOP10; assay: shrunken log2 fold change of peptide-encoding DNA abundance (4.5 h post-induction vs induction); higher = less antimicrobial activity (less host growth inhibition); details: time post-induction: 4.5 h; library: site-saturation at positions 5, 18, 19, 20;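 note: peptides expressed intracellularly from a pBAD plasmid library in pooled LB shake-flask culture, induced with 0.3% L-arabinose, DNA abundance read by NGS, three biological replicates, DESeq2 with apeglm shrinkage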
Readings of shrunken log2 fold change for the listed sequences
value.kind: shrunken log2 fold change

{"columns": ["sequence.record", "endpoint.value"],
 "data": [
  ["RRIRERPPRLPRPRPRPQDSPRP", -0.222],
  ["RRIRIRPPRLPRPRPRPGQAPRP", -0.0154],
  ["RRIRGRPPRLPRPRPRPVCWPRP", 1.16],
  ["RRIRNRPPRLPRPRPRPEVNPRP", -0.0723],
  ["RRIRVRPPRLPRPRPRPCNAPRP", -0.184],
  ["RRIRSRPPRLPRPRPRPINQPRP", -0.657],
  ["RRIRCRPPRLPRPRPRPHYYPRP", -1.07],
  ["RRIRKRPPRLPRPRPRPRPPPRP", 1.15],
  ["RRIRLRPPRLPRPRPRPNGYPRP", -0.315],
  ["RRIRERPPRLPRPRPRPNNDPRP", -0.663],
  ["RRIRSRPPRLPRPRPRPQWYPRP", -0.73],
  ["RRIRARPPRLPRPRPRPPARPRP", 0.874]
]}
